# Test system: KB3.1
# protocol_description: MTT cytotoxicity assay, KB3.1
# Type: cell-based
# particulars: KB3.1 human epidermoid carcinoma cell line, 5 d incubation, 37 °C, 5% CO2, DMEM + 10% FBS, mean ± SD of two independent measurements

- compound: "C[C@H]1C[C@@H](C)[C@@H](O)C[C@@H](Cc2cn(CCOCCOCCO)nn2)OC(=O)[C@@H](Cc2ccc(O)c(I)c2)N(C)C(=O)CNC(=O)[C@@H](C)C1"
  study_system: "KB3.1"
  limit_qualifier: "="
  IC50 / µM: 10.5
- compound: "C[C@H]1C[C@@H](C)[C@@H](O)C[C@@H](Cc2cn(CCOCCOCCOCCNC(=O)OC(C)(C)C)nn2)OC(=O)[C@@H](Cc2ccc(O)c(I)c2)N(C)C(=O)CNC(=O)[C@@H](C)C1"
  study_system: "KB3.1"
  limit_qualifier: "="
  IC50 / µM: 3.29
- compound: "C[C@H]1C[C@@H](C)[C@@H](O)C[C@@H](Cc2cn(CCOCCOCC(=O)O)nn2)OC(=O)[C@@H](Cc2ccc(O)c(I)c2)N(C)C(=O)CNC(=O)[C@@H](C)C1"
  study_system: "KB3.1"
  limit_qualifier: ">"
  IC50 / µM: 46.2
- compound: "COc1ccc(C#CC[C@@H]2C[C@H](O)[C@H](C)C[C@H](C)C[C@H](C)C(=O)NCC(=O)N(C)[C@H](Cc3ccc(O)c(I)c3)C(=O)O2)cc1 [Compound 10b]"
  study_system: "KB3.1"
  limit_qualifier: "="
  IC50 / µM: 459
- compound: "CCOC(=O)CCSCCC[C@@H]1C[C@H](O)[C@H](C)C[C@H](C)C[C@H](C)C(=O)NCC(=O)N(C)[C@H](Cc2ccc(O)c(I)c2)C(=O)O1 [Compound 11d]"
  study_system: "KB3.1"
  limit_qualifier: "="
  IC50 / µM: 3.93
